The measured values listed here are drawn from paper PMC9998502.

Target: human delta opioid receptor (human)
Test: radioligand binding; displacement of [3H]deltorphin-2 from commercial membranes of CHO cells transfected with the human recombinant delta opioid receptor; Ki, mean ± SEM, n ≥ 3
Reported Endpoint: Ki (nM)

Examples with their reported Ki follow.
Substance	Ki / nM
EM-2 analog 5 (Dmt-(R)-Nip-Phe-Phe-NH2) (peptide)	589
EM-2 analog 2 (Tyr-(R)-Pip-Phe-Phe-NH2) (peptide)	682

P: EM-2 analog 1 (Dmt-Pro-Phe-Phe-NH2) (peptide)
Q: EM-2 analog 3 (Dmt-(R)-Pip-Phe-Phe-NH2) (peptide)
Prompt line: Hi there, can you help? I need to know whether P or Q has lower measured Ki. Field: selected label. Fill in the label of the entry you choose.
Response line: Q
(Q: 37 nM, P: 560 nM)

A: EM-2 analog 7 (Dmt-(R)-β2-Ala-Phe-Phe-NH2) (peptide)
B: EM-2 analog 9 (Dmt-(R)-β3-Ala-Phe-Phe-NH2) (peptide)
Prompt line: Hi there, can you help? I need to know whether A or B has lower measured Ki. Indicate your choice by writing its label.
Response line: B
(B: 286 nM, A: 571 nM)
